Give growth for every item shown.
system: RXF 393 renal; test: NCI-60 one-dose screen, 48 h (100 = growth as untreated, 0 = no growth, -100 = all killed); conditions: 10 µM
The panel holds about 83,000 compounds, 20% with a hit somewhere; the sample as a whole holds those more often.
Give the number; % is assumed, so skip it.

molecule COc1cccc(Cn2c(-c3nonc3N)nc3ccccc32)c1 , growth observed: -40.1

molecule N#CSCC1CC(O)(c2ccccc2)CC(c2ccc(Cl)cc2)O1 (centres undefined) , growth observed: 9.83

molecule N#Cc1c(C#N)c(SSc2c(C#N)c(C#N)c(N)n2-c2ccccc2)n(-c2ccccc2)c1N , growth observed: 98.8

molecule Cc1ccc(NC(=O)Nc2cccnc2)cc1NC(=O)Nc1cccnc1 , growth observed: 82.7

molecule N#CCCN(NC(=O)OCc1ccccc1)C(=O)OCc1ccccc1 , growth observed: 111

molecule CSCCCNC(=O)c1ccc2c(c1)/C(=C/c1[nH]c(C)cc1C)C(=O)N2 , growth observed: -31

molecule CC(C)(Cl)CCC1=C(Cl)C(=O)c2ccccc2C1=O , growth observed: 28.8

molecule COc1ccc(-c2cc(/C=C3\C(=O)Nc4ccc(OC)cc43)[nH]n2)cc1 , growth observed: 48

molecule COc1cc(Nc2ncnc(Nc3ccc4c(n3)NC(=O)C(C)(C)O4)n2)cc(OC)c1OC , growth observed: -86.6

molecule Cn1c([N+](=O)[O-])cnc1/C=C1\Oc2cc(Cl)ccc2C1=O , growth observed: -66.8

molecule COc1ccc2c(c1)O/C(=C\c1ccc([N+](=O)[O-])s1)C2=O , growth observed: -17.3

molecule N#Cc1ncc(-c2ccc(C(F)(F)F)cc2)c(NCc2cc(C(F)(F)F)cc(C(F)(F)F)c2)n1 , growth observed: 35.8

molecule CCCCCCNC(=O)Oc1ccc(/C(=C(/CC)Cc2ccccc2)c2ccc(OCCN3CCCCC3)cc2)cc1 , growth observed: 73.8

molecule C=C1c2c(C)nn(-c3ccc(OC)cc3)c2N(C)C23C[C@@H]1C1(C)c4c(C)nn(-c5ccc(OC)cc5)c4N(C)C(C)(C[C@H]12)C3 (some centres undefined) , growth observed: 67.9

molecule O=[N+]([O-])c1cccc(-c2ncc(-c3ccc(Cl)cc3Cl)[nH]2)c1 , growth observed: 95

molecule COc1ccc(Cl)cc1C(=O)Nc1nc2ccc(Cl)cc2s1 , growth observed: 95

molecule CC(C)=NNc1ncnc2c1ncn2C1OC(CO)C(O)C1O (centres undefined) , growth observed: 23.1

molecule N#CCCN1C/C(=C/c2ccc(Cl)cc2)C(=O)/C(=C/c2ccc(Cl)cc2)C1 , growth observed: -94.3

molecule CC[C@H]1CCC/C=C/[C@@H]2C[C@H](O)C[C@H]2[C@H](O)/C=C/C(=O)O1 , growth observed: -29.2

molecule Cc1cc(N(CCCNc2ccnc3cc(Cl)ccc23)Cc2ccc3c(c2)OCO3)nc(N2CCCCC2)n1 , growth observed: -74.5

molecule Oc1[nH]c2ccc(Cl)cc2c1/C=c1/ccc2c(c1)N=C(c1cc(F)cc(F)c1)N=2 , growth observed: 61.6

molecule CN1c2ccccc2[C@]2(Cc3ccccc3)Cc3ccccc3N[C@H]12 , growth observed: 112

molecule COc1ccc(-c2ccc3cc(C(=O)Nc4ccc(O)c(C(=O)/C=C/c5cc(OC)c(OC)c(OC)c5)c4)ccc3c2)cc1 , growth observed: 93

molecule Cc1[nH]nc2c1C(c1cnn(C)c1)C(C#N)=C(N)O2 (centres undefined) , growth observed: 106

====

tested on: NCI-H226 lung; assay: NCI-60 one-dose screen, 48 h (100 = growth as untreated, 0 = no growth, -100 = all killed); conditions: 10 µM
The panel holds about 83,000 compounds, 20% with a hit somewhere; the sample as a whole holds those more often.
endpoint-name: growth (%)
Give the number; % is assumed, so skip it.

compound CC1(C)OC2=C(CC1Br)C(=O)C(=O)c1ccccc12 (stereo unspecified) , growth observed: -6.31

compound O=C(Nc1ccncc1)C(=O)c1cn(S(=O)(=O)c2cc(Cl)cc(Cl)c2)c2ccccc12 , growth observed: 74.2

compound CCN(CC)CCSCCCNc1c2ccc(Cl)cc2nc2ccc(OC)cc12 , growth observed: 48.7

compound Cc1cccc(C)c1NC(=O)c1sc2nc3c(cc2c1N)C(=O)CCC3 , growth observed: 83

compound COc1cc(/C(=C2/O[C@@H]([C@H]3COC(C)(C)O3)[C@H]3OC(C)(C)O[C@@H]23)c2ccc3ccccc3c2)cc(OC)c1OC , growth observed: 66.9

compound Cc1ccc(NC(=O)NC2CCCCC2)cc1 , growth observed: 95.5

compound S=C1SCC(c2ccccc2)S1 (stereo unspecified) , growth observed: 101

compound CCCCCCNC(=O)Oc1ccc(/C(=C(/CC)Cc2ccccc2)c2ccc(OCCN3CCCCC3)cc2)cc1 , growth observed: 88.6

compound C[N+](C)(C)c1ncnc2nc[nH]c12 , growth observed: 99.1

compound COc1ccc(-c2nsc3c2NC(=O)CC3c2ccc(F)cc2)cc1 (stereo unspecified) , growth observed: 75.2

compound Cc1cccc2c1O/C(=C\c1ccc([N+](=O)[O-])o1)C2=O , growth observed: -57.8

compound CC(=O)c1cc(Cl)ccc1O , growth observed: 98.1

compound Nc1ccn(C2CC(O)C(CO)O2)c(=O)n1 (stereo unspecified) , growth observed: 99.1

compound COc1cc(-c2cc(-c3cc4c([nH]c5ccccc54)c(-c4cc(OC)c(OC)c(OC)c4)n3)cc(-c3ccccc3)n2)cc(OC)c1OC , growth observed: 77

compound Cc1ccc2oc3nc(C)c(C(=O)NCc4ccccc4)cc3c(=O)c2c1 , growth observed: 104

compound O=C(O)CCCCSc1ncnc2nc[nH]c12 , growth observed: 98.6

compound COc1ccc(CN2CCC(N3CCCC3=O)c3cc(Cl)ccc32)cc1 (stereo unspecified) , growth observed: 114

compound Cc1cs/c(=N\NC(=O)c2cc(-c3cc4ccccc4o3)nn2-c2ccccc2)n1-c1ccccc1 , growth observed: 91.3

compound O=C(C[P+](c1ccccc1)(c1ccccc1)c1ccccc1)C[P+](c1ccccc1)(c1ccccc1)c1ccccc1 , growth observed: -71.8

compound CC(=O)c1cc(Br)ccc1O , growth observed: 101

compound COc1cc(-c2cc(C(=O)N3CCN(C(=O)c4ccccc4NCc4cccs4)CC3)nc3cc(-c4ccccc4)nn23)cc(OC)c1OC , growth observed: 78.7

====

system: SNB-75 CNS; assay: NCI-60 one-dose screen, 48 h (100 = growth as untreated, 0 = no growth, -100 = all killed); conditions: 10 µM
About 83,000 compounds went through this panel and 20% of them were active in at least one assay; those are over-represented in the sample as a whole.
Output: class label from growth. Mapping: L = under 70%, M = from 70% up to 90%, H = 90% and over

Which class does COc1ccc(OC)c(NC(=O)c2sc3nc4c(cc3c2N)C(=O)CCC4)c1 fall in?
M

Which class does O=C(N/N=C/c1ccccc1)C(Oc1ccccc1)c1ccccc1 (configuration not stated) fall in?
M

Which class does CN(Cc1ccccc1)Cc1ccc([N+](=O)[O-])cc1I fall in?
H

Which class does O=C(Nc1ccc(Cl)c([N+](=O)[O-])c1)Nc1nc2ccccc2s1 fall in?
H

Which class does N=c1nc(N)ncn1-c1ccccc1 fall in?
M

Which class does CCOCC(=O)C(C#N)c1ccc(Cl)c(Cl)c1 (configuration not stated) fall in?
M

Which class does COc1ccc(-c2nc(-c3nc4ccc(OC)cc4[nH]3)cc3c2[nH]c2ccccc23)cc1 fall in?
L

Which class does CCCCCCCCCCCCCCCCCCOCC(COCCOCC[N+]1(CCCCCC(=O)[O-])CCCC1)Oc1ncccn1 (configuration not stated) fall in?
L

Which class does CC(C)(C)c1cc(Br)cc(C(C)(C)C)c1O fall in?
H

Which class does COc1cc(/C(=C2/O[C@@H]([C@H]3COC(C)(C)O3)[C@H]3OC(C)(C)O[C@@H]23)c2ccc3ccccc3c2)cc(OC)c1OC fall in?
L

Which class does Cc1ccc(Nc2cc(C)nc(NCCCNc3ccnc4cc(Cl)ccc34)n2)cc1 fall in?
L

Which class does COc1ccc(NC2=NC(C)(CO)CS2)cc1 (configuration not stated) fall in?
M

Which class does O=C(Nc1cccc(-n2cc(-c3ccncc3)c(-c3cc(O)cc(Cl)c3)n2)c1)Nc1ccc(Cl)c(C(F)(F)F)c1 fall in?
L

Which class does CCCN(CCC)CCC(O)c1cc2c(c3ccccc13)CCCC2 (configuration not stated) fall in?
M

Which class does CCCCN(CCCC)CCCCCCCCC(O)c1cc2ccccc2c2ccccc12 (configuration not stated) fall in?
L

Which class does Cn1c([N+](=O)[O-])cnc1/C=C1\Oc2cc(Cl)ccc2C1=O fall in?
L

====

Tested on: MCF7 breast
Assay: NCI-60 one-dose screen, 48 h
Conditions: 10 µM
Description: Growth inhibition of the MCF7 human tumor cell line is measured as a screen for anti-cancer activity. Cells are grown in 96 well plates and exposed to the test compound for 48 hours. Compounds are tested at a single concentration, which is 10^-5 M for most compounds. The reported endpoint is percent growth (GI% or GIPRCNT), where numbers from 0 - 100% represent growth inhibition, and numbers from -100% - 0 represent cell death. For example, a value of 40 represents 60% growth inhibition. […]
About 83,000 compounds went through this panel and 20% of them were active in at least one assay; those are over-represented in the sample as a whole. Active and inactive are the calls of the source. How the source made its calls: active means growth percent below 10; inactive means the rest.
The reply should name one outcome from active, inactive

I would be grateful if you could indicate the recorded call for CC(C)(Cl)CCC1=C(Cl)C(=O)c2ccccc2C1=O .
active

I would be grateful if you could indicate the recorded call for Cc1ccc(-c2n[nH]c(=O)c3noc(-c4ccc(C)cc4)c23)cc1 .
inactive

I would be grateful if you could indicate the recorded call for Clc1ccccc1N=Cc1ccc2c(c1)OCO2 .
inactive

I would be grateful if you could indicate the recorded call for COc1cc(-c2nc(-c3nnc(-c4ccccc4Cl)o3)c3ccccn23)cc(OC)c1OC .
inactive

I would be grateful if you could indicate the recorded call for O=C(N/N=C/c1ccccc1)C(Oc1ccccc1)c1ccccc1 (stereo not given) .
inactive

I would be grateful if you could indicate the recorded call for CN1CCC(CNc2cc(C3(C(=O)Nc4cc(C(=O)Nc5ccc(Cl)c(C(F)(F)F)c5)ccc4F)CC3)ncn2)CC1 .
active

I would be grateful if you could indicate the recorded call for CCCCCCCNc1nc(C=O)ncc1-c1ccc(C(F)(F)F)cc1 .
inactive

I would be grateful if you could indicate the recorded call for N#Cc1cccc(OCc2nc(N)nc(N)c2-c2ccc(Cl)c(Cl)c2)c1 .
inactive

I would be grateful if you could indicate the recorded call for COc1ccc2c(c1)nc(N)c1c3cccnc3cn21 .
inactive

I would be grateful if you could indicate the recorded call for CCCCC(CCCCCC(CCCC)NCc1ccc2c(c1)OCO2)NCc1ccc2c(c1)OCO2 (stereo not given) .
active

I would be grateful if you could indicate the recorded call for CC(=O)N1C/C(=C/c2ccc(Cl)cc2)C(=O)/C(=C/c2ccc(Cl)cc2)C1 .
active

I would be grateful if you could indicate the recorded call for CCCCCCN1C(=O)C2=C(c3ccc(Cl)cc3)Nc3c(c(C)nn3-c3ccccc3)C2c2ccccc21 (stereo not given) .
inactive

I would be grateful if you could indicate the recorded call for CCCN(CCC)CCC(O)c1cc2c(c3ccccc13)CCCC2 (stereo not given) .
inactive

I would be grateful if you could indicate the recorded call for Nc1ccc2c(c1)Cc1cc(N)c(Br)cc1-2 .
inactive

I would be grateful if you could indicate the recorded call for CN(C)Cc1cn(-c2ncc(-c3ccc(C(F)(F)F)cc3)c(NC3CCCCCC3)n2)nn1 .
inactive
